# Tested on: LOX IMVI melanoma
# protocol-summary: NCI tumour cell line growth inhibition, 48 h; in the data active = GI50 below about 0.43 µM; inactive = the rest
One label from this list, please: T = active, F = inactive

Which outcome was assigned to COc1ccc2c(c1)/C(=C\c1c(Cl)[nH]c3ccc(OC)cc13)C(=O)N2 in this test? F

Next compound: CCOc1cccc(/C=N/NC(=O)C(=O)Nc2cccc(C(F)(F)F)c2)c1O F

Next compound: CN(C)CCCNC(=O)c1ccc2c(c1)oc1cc3ccccc3c(=O)n12 F

Next compound: OCCNc1ncnc2c1ncn2Cc1cccc(COc2cccc(OCc3cccc(Cn4cnc5c(NCCO)ncnc54)c3)c2)c1 F

Next compound: COc1ccc(C2=NN(C=O)C(c3cccc(Nc4ccnc5cc(Cl)ccc45)c3)C2)cc1 (stereo not given) F

Next compound: CCn1c(-c2nonc2N)nc2c(C#CC(C)(C)O)nc(OCCNC)cc21 F

Next compound: Cn1c2c(c3ccc(Cl)c(Cl)c31)C(C#N)C1(CCNCC1)NC2=O (stereo not given) F

Next compound: COc1cc2cc(C(=O)N3C[C@H](CCl)c4c3cc(N)c3ccccc43)[nH]c2c(OC)c1OC T

Next compound: COc1cc(C(=O)Nc2cc3c(cc2Oc2cc(C)cc(C)c2)C(=O)N(C)[C@@H](CC(=O)N(C)O)C(=O)N3)c(Br)c(OC)c1OC T

Next compound: O=C1c2cc(Cl)ccc2-c2c1c1ccc([N+](=O)[O-])cc1c(=O)n2CCCBr F

Next compound: Fc1cc2[nH]ncc2c2c3c(c(-c4cn[nH]c4C(F)(F)F)nc12)C1CCC3C1 (stereo not given) F

Next compound: CCOC(=O)/C=C/C1=C(c2cccs2)c2ccccc2CC1 F

Next compound: O=C(O)C1CCCCC1C(=O)O.[NH-]C1CCC1.[NH2-].[Pt+2] (stereo not given) F

Next compound: COc1ccc(-c2ccc(-c3ccc(C(=N)N)cn3)o2)cc1 F

Next compound: COc1ccccc1/C=C/C(=O)c1ccccc1 F
